molecular target: DNA gyrase (Staphylococcus aureus, UniProt P0A0K8+P20831); experiment: Inhibition of Staphylococcus aureus DNA gyrase
Sequence (P0A0K8 whole entry): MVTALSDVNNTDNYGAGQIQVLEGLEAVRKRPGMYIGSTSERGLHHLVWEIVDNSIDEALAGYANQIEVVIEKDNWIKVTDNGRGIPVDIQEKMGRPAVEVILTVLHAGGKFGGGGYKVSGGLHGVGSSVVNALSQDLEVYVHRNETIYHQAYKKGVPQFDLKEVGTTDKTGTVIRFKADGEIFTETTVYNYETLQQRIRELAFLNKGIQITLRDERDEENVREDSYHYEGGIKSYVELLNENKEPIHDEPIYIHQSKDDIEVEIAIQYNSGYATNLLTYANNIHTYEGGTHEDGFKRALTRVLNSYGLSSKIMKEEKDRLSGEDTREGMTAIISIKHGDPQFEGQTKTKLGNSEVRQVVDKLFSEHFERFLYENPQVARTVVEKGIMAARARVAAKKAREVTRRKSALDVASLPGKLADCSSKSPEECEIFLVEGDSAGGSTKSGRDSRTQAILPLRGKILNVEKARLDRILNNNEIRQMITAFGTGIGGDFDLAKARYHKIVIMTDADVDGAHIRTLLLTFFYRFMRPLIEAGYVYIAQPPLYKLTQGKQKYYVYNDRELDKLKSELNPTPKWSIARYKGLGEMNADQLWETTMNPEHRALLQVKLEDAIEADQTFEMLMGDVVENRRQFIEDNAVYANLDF
Sequence (P20831 whole entry): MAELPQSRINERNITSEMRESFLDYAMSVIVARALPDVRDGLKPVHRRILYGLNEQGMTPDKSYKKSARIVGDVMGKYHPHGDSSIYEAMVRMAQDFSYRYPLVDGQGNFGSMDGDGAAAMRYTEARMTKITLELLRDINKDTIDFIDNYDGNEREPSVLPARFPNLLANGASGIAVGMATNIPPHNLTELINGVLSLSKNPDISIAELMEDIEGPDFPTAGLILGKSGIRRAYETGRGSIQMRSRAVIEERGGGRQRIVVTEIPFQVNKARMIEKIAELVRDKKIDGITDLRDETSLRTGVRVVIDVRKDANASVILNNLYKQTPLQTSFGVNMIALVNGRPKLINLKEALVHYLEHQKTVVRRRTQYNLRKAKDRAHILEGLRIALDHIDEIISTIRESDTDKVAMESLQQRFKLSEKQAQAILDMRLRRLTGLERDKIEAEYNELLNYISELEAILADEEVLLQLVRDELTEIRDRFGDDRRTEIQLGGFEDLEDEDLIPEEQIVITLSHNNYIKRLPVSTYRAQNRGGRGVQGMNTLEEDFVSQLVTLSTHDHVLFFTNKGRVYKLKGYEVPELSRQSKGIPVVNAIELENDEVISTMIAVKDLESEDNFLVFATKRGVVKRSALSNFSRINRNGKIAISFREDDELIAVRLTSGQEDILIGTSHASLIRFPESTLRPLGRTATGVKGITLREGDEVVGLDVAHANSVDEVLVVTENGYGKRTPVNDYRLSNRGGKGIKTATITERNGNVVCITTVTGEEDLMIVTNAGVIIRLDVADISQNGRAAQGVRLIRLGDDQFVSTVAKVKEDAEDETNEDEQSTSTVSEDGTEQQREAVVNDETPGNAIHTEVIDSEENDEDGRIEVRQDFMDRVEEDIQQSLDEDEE
recorded_metric: IC50 (µM)
The reply should be a number in µM, with the unit left off.

Record summary for `Cc1occc1C(=O)NNC(=S)NC(=O)c1ccccc1` : reported IC50 = 15
